test system: SK-N-DZ (Neuroblastoma); test: Bliss excess, mean over the matrix (fraction); higher = more synergy;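 also: after 72 h of two-drug dosing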
Measure: Bliss excess
# output: bare number, no unit

Look over these answered cases.
C[C@@H](c1ccc2nccn2c1)n1nnc2ncc(-c3cnn(C)c3)nc21 [Savolitinib] + CC1(C)CCC(CN2CCN(c3ccc(C(=O)NS(=O)(=O)c4ccc(NCC5CCOCC5)c([N+](=O)[O-])c4)c(Oc4cnc5[nH]ccc5c4)c3)CC2)=C(c2ccc(Cl)cc2)C1 [Venetoclax] (first compound max 1 µM, 7x7, partner max 1 µM) = -0.0158
C[C@@H]1COCCN1c1cc(C2([S@](C)(=N)=O)CC2)nc(-c2ccnc3[nH]ccc23)n1 [AZD6738] + O=C(c1cc(Cc2n[nH]c(=O)c3ccccc23)ccc1F)N1CCN(C(=O)C2CC2)CC1 [Olaparib] (first compound max 10 µM, 7x7, partner max 10 µM) = -0.0019

### Prompt I have this compound here, CS(=O)(=O)CCNCc1ccc(-c2ccc3ncnc(Nc4ccc(OCc5cccc(F)c5)c(Cl)c4)c3c2)o1 [Lapatinib] + C[C@@H](Oc1cc(-c2cnn(C3CCNCC3)c2)cnc1N)c1c(Cl)ccc(F)c1Cl [Crizotinib] (first compound max 10 µM, 7x7, partner max 10 µM) , and I need its recorded Bliss excess.
### Response -0.0702
